ASSAY_PROTOCOL: Plasma pharmacokinetics by LC-MS/MS
ASSAY_SETUP: human, plasma, oral, Median Tmax [Min; Max], plasma binimetinib; 2nd section, Cycle 1 Day 1 (C1D1); Dose Level 6: AEB071 400 mg bid and MEK162 30 mg bid
TEST_READOUT: Tmax
Dear colleague, please send the value followed by its unit.

**Query** For the molecule "Cn1cnc2c(F)c(Nc3ccc(Br)cc3F)c(C(=O)NOCCO)cc21" , give its reported Tmax.
**Result** 1.5 h

* * *

ASSAY_PROTOCOL: Plasma pharmacokinetics by LC-MS/MS
ASSAY_SETUP: human, plasma, oral, Median Tmax [Min; Max], plasma binimetinib; 2nd section, Cycle 1 Day 1 (C1D1); Dose Level 1: AEB071 150 mg bid and MEK162 45 mg bid
TEST_READOUT: Tmax (h)
Kindly answer with a numeric value in h, unit omitted.

**Query** For the compound Cn1cnc2c(F)c(Nc3ccc(Br)cc3F)c(C(=O)NOCCO)cc21 [binimetinib] , give its reported Tmax.
**Result** 2

* * *

ASSAY_PROTOCOL: Plasma pharmacokinetics by LC-MS/MS
ASSAY_SETUP: human, plasma, oral, Median AUC0–8hr [Min; Max], plasma binimetinib; Cycle 1 Day 1 (C1D1); Dose Level 3: AEB071 300 mg bid and MEK162 30 mg bid
TEST_READOUT: AUC(0-t)
Dear colleague, please send the value followed by its unit.

**Query** For the compound Cn1cnc2c(F)c(Nc3ccc(Br)cc3F)c(C(=O)NOCCO)cc21 [binimetinib] , give its reported AUC(0-t).
**Result** 1130 ng·h/mL

* * *

ASSAY_PROTOCOL: Plasma pharmacokinetics by LC-MS/MS
ASSAY_SETUP: human, plasma, oral, Median Cmax [Min; Max], plasma binimetinib; 2nd section, Cycle 1 Day 1 (C1D1); Dose Level 2: AEB071 200 mg bid and MEK162 45 mg bid
TEST_READOUT: Cmax (ng/mL)
Kindly answer with a numeric value in ng/mL, unit omitted.

**Query** For the compound "Cn1cnc2c(F)c(Nc3ccc(Br)cc3F)c(C(=O)NOCCO)cc21" , give its reported Cmax.
**Result** 410

* * *

ASSAY_PROTOCOL: clinical
ASSAY_SETUP: human, in vivo, 400 mg, median AUC0-8hr of sotrastaurin
TEST_READOUT: AUC(0-t) (ng·h/mL)
Kindly answer with a numeric value in ng·h/mL, unit omitted.

**Query** For the compound "CN1CCN(c2nc(C3=C(c4c[nH]c5ccccc45)C(=O)NC3=O)c3ccccc3n2)CC1" , give its reported AUC(0-t).
**Result** 21600

* * *

ASSAY_PROTOCOL: Plasma pharmacokinetics by LC-MS/MS
ASSAY_SETUP: human, plasma, oral, Median AUC0–8hr [Min; Max], plasma binimetinib; 2nd section, Cycle 1 Day 1 (C1D1); Dose Level 1: AEB071 150 mg bid and MEK162 45 mg bid
TEST_READOUT: AUC(0-t) (ng·h/mL)
Kindly answer with a numeric value in ng·h/mL, unit omitted.

**Query** For the molecule Cn1cnc2c(F)c(Nc3ccc(Br)cc3F)c(C(=O)NOCCO)cc21 [binimetinib] , give its reported AUC(0-t).
**Result** 2000

* * *

ASSAY_PROTOCOL: Plasma pharmacokinetics by LC-MS/MS
ASSAY_SETUP: human, plasma, oral, Median AUC0–8hr [Min; Max], plasma binimetinib; Cycle 1 Day 1 (C1D1); Dose Level 5: AEB071 350 mg bid and MEK162 30 mg bid
TEST_READOUT: AUC(0-t) (ng·h/mL)
Kindly answer with a numeric value in ng·h/mL, unit omitted.

**Query** For the molecule Cn1cnc2c(F)c(Nc3ccc(Br)cc3F)c(C(=O)NOCCO)cc21 [binimetinib] , give its reported AUC(0-t).
**Result** 1260

* * *

ASSAY_PROTOCOL: Plasma pharmacokinetics by LC-MS/MS
ASSAY_SETUP: human, plasma, oral, Median Cmax [Min; Max], plasma binimetinib; Cycle 1 Day 1 (C1D1); Dose Level 4: AEB071 300 mg bid and MEK162 45 mg bid
TEST_READOUT: Cmax (ng/mL)
Kindly answer with a numeric value in ng/mL, unit omitted.

**Query** For the compound "Cn1cnc2c(F)c(Nc3ccc(Br)cc3F)c(C(=O)NOCCO)cc21" , give its reported Cmax.
**Result** 370

* * *

ASSAY_PROTOCOL: Plasma pharmacokinetics by LC-MS/MS
ASSAY_SETUP: human, plasma, oral, Median Cmax [Min; Max], plasma binimetinib; 2nd section, Cycle 1 Day 1 (C1D1); Dose Level 1: AEB071 150 mg bid and MEK162 45 mg bid
TEST_READOUT: Cmax (µg/mL)
Kindly answer with a numeric value in µg/mL, unit omitted.

**Query** For the molecule Cn1cnc2c(F)c(Nc3ccc(Br)cc3F)c(C(=O)NOCCO)cc21 [binimetinib] , give its reported Cmax.
**Result** 0.493

* * *

ASSAY_PROTOCOL: Plasma pharmacokinetics by LC-MS/MS
ASSAY_SETUP: human, plasma, oral, Median Tmax [Min; Max], plasma binimetinib; 2nd section, Cycle 1 Day 1 (C1D1); Dose Level 5: AEB071 350 mg bid and MEK162 30 mg bid
TEST_READOUT: Tmax

**Query** For the compound "Cn1cnc2c(F)c(Nc3ccc(Br)cc3F)c(C(=O)NOCCO)cc21" , give its reported Tmax.
**Result** 1.9 h

* * *

ASSAY_PROTOCOL: Plasma pharmacokinetics by LC-MS/MS
ASSAY_SETUP: human, plasma, oral, Median AUC0–8hr [Min; Max], plasma binimetinib; Cycle 1 Day 1 (C1D1); Dose Level 6: AEB071 400 mg bid and MEK162 30 mg bid
TEST_READOUT: AUC(0-t) (ng·h/mL)
Kindly answer with a numeric value in ng·h/mL, unit omitted.

**Query** For the compound Cn1cnc2c(F)c(Nc3ccc(Br)cc3F)c(C(=O)NOCCO)cc21 [binimetinib] , give its reported AUC(0-t).
**Result** 985

* * *

ASSAY_PROTOCOL: Plasma pharmacokinetics by LC-MS/MS
ASSAY_SETUP: human, plasma, oral, Median Tmax [Min; Max], plasma binimetinib; Cycle 1 Day 1 (C1D1); Dose Level 3: AEB071 300 mg bid and MEK162 30 mg bid
TEST_READOUT: Tmax (h)
Kindly answer with a numeric value in h, unit omitted.

**Query** For the compound "Cn1cnc2c(F)c(Nc3ccc(Br)cc3F)c(C(=O)NOCCO)cc21" , give its reported Tmax.
**Result** 2

* * *

ASSAY_PROTOCOL: Plasma pharmacokinetics by LC-MS/MS
ASSAY_SETUP: human, plasma, oral, Median Cmax [Min; Max], plasma binimetinib; Cycle 1 Day 1 (C1D1); Dose Level 1: AEB071 150 mg bid and MEK162 45 mg bid
TEST_READOUT: Cmax (ng/mL)
Kindly answer with a numeric value in ng/mL, unit omitted.

**Query** For the molecule Cn1cnc2c(F)c(Nc3ccc(Br)cc3F)c(C(=O)NOCCO)cc21 [binimetinib] , give its reported Cmax.
**Result** 366

* * *

ASSAY_PROTOCOL: Plasma pharmacokinetics by LC-MS/MS
ASSAY_SETUP: human, plasma, oral, Median Cmax [Min; Max], plasma binimetinib; 2nd section, Cycle 1 Day 1 (C1D1); Dose Level 5: AEB071 350 mg bid and MEK162 30 mg bid
TEST_READOUT: Cmax (ng/mL)
Kindly answer with a numeric value in ng/mL, unit omitted.

**Query** For the compound "Cn1cnc2c(F)c(Nc3ccc(Br)cc3F)c(C(=O)NOCCO)cc21" , give its reported Cmax.
**Result** 280

* * *

ASSAY_PROTOCOL: Plasma pharmacokinetics by LC-MS/MS
ASSAY_SETUP: human, plasma, oral, Median Cmax [Min; Max], plasma binimetinib; 2nd section, Cycle 1 Day 1 (C1D1); Dose Level 6: AEB071 400 mg bid and MEK162 30 mg bid
TEST_READOUT: Cmax
Dear colleague, please send the value followed by its unit.

**Query** For the compound "Cn1cnc2c(F)c(Nc3ccc(Br)cc3F)c(C(=O)NOCCO)cc21" , give its reported Cmax.
**Result** 346 ng/mL

* * *

ASSAY_PROTOCOL: Plasma pharmacokinetics by LC-MS/MS
ASSAY_SETUP: human, plasma, oral, 45 mg, median AUC0-8hr range of binimetinib, cycle 1 day 15; binimetinib 45 mg b.i.d. with varying doses of sotrastaurin
TEST_READOUT: AUC(0-t)

**Query** For the compound Cn1cnc2c(F)c(Nc3ccc(Br)cc3F)c(C(=O)NOCCO)cc21 [binimetinib] , give its reported AUC(0-t).
**Result** 1480 to 2140 ng·h/mL

* * *

ASSAY_PROTOCOL: Plasma pharmacokinetics by LC-MS/MS
ASSAY_SETUP: human, plasma, oral, Median Tmax [Min; Max], plasma binimetinib; Cycle 1 Day 1 (C1D1); Dose Level 1: AEB071 150 mg bid and MEK162 45 mg bid
TEST_READOUT: Tmax (h)
Kindly answer with a numeric value in h, unit omitted.

**Query** For the compound "Cn1cnc2c(F)c(Nc3ccc(Br)cc3F)c(C(=O)NOCCO)cc21" , give its reported Tmax.
**Result** 1.1
